- TESTED_TARGET: DNA helicase (UniProt P0ACB1)
- Sequence (P0ACB1 whole entry): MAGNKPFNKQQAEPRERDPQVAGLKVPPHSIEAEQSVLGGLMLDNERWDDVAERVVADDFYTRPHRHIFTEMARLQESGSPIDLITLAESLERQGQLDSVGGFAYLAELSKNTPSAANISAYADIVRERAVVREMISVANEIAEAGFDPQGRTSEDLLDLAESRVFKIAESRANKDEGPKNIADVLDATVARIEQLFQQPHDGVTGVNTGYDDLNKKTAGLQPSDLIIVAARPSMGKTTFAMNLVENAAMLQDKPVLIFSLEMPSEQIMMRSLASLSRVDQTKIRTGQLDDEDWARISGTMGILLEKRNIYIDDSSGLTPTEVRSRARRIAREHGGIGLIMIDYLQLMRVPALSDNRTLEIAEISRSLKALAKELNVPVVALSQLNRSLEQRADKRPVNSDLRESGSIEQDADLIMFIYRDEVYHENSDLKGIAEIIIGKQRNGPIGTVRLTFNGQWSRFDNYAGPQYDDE
- METHOD: relative enzymatic activity vs untreated control (fraction); higher = less inhibition
- PROTOCOL_CONDITIONS: 100 µM; incubation time: 2 h at 37 C
Would you please tag the item YES when its relative enzymatic activity is 0.5 or above, and NO when it is below?

> print(dat)
                                   compound                  tested.target  classification
1  CON=C(C(=O)NC1C(=O)N2C(C(=O)OCOC(=O)C(C)(C)C)=C(C=Cc3scnc3C)CSC12)c1csc(N)n1 (stereo not drawn)  DNA helicase (UniProt P0ACB1)              NO
2  NC(=O)[C@@H]1C(=O)C[C@@H]2C[C@@H]3Cc4cccc(O)c4C(=O)[C@@H]3C(=O)[C@]2(O)C1=O  DNA helicase (UniProt P0ACB1)             YES
3  CN(C)CCOC(c1ccccc1)c1ccccc1.Cn1c(=O)c2[nH]c(Cl)nc2n(C)c1=O  DNA helicase (UniProt P0ACB1)             YES
4  COC1=C(OC)C(=O)C(CCCCCCCCCC[P+](c2ccccc2)(c2ccccc2)c2ccccc2)=C(C)C1=O  DNA helicase (UniProt P0ACB1)              NO
5  CCN1CCN(C(=O)NC(C(=O)NC2C(=O)N3C(C(=O)O)=C(CSc4nnnn4C)CSC23)c2ccc(O)cc2)C(=O)C1=O (stereo not drawn)  DNA helicase (UniProt P0ACB1)             YES
6  O=c1[nH]c(=O)n(C2CC(O)C(CO)O2)cc1F (stereo not drawn)  DNA helicase (UniProt P0ACB1)             YES
7  CON=C1CN(c2nc3c(cc2F)c(=O)c(C(=O)O)cn3C2CC2)CC1CN.CS(=O)(=O)O (stereo not drawn)  DNA helicase (UniProt P0ACB1)              NO

Below: the item to evaluate.
Req: Check this compound for relative enzymatic activity at or above 0.5: CCC1OC(=O)C(C)C(OC2CC(C)(OC)C(O)C(C)O2)C(C)C(OC2OC(C)CC(N(C)C)C2O)C(C)(O)CC(C)CN(C)C(C)C(O)C1(C)O (stereo not drawn)
Resp: YES

Values compiled from the supplement of paper PMC9446081.
